biological target: T1, SARS-CoV-2 RBD-SD1 with murine IgG2a Fc part, produced in High Five cells (SARS-CoV-2, UniProt P0DTC2); assay: ELISA; settings: both partners purified
T1 construct: source: High Five insect cells, transient transfection, purified (Protein A)
Below, each entry is listed alongside its reported pEC50.
Schema: pEC50 number; meaning minus log10 of the concentration expressed in molar units.

binder="STE73-6C1 IgG (antibody, V domains shown, source: Expi293F, transfected, purified (Protein A); copies: 2 + 2) VH: QVQLVQSGGGVVQPGRSLRLSCAASGFTFSSYAMHWVRQAPGKGLEWVAVISYDGSNKYYADSVKGRFTISRDNSKNTLYLQMNSLRAEDTAVYYCARSYVGGMDVWGQGTTVTVSS VL: QLVLTQSPSVSGAPGQSVTISCTGTDSNIGAGYNVHWYQQLPGAAPKLIISYTDNRPSGVPDRFSGSKSGTSASLAITGLQAEDEADYYCQSSDRTLVGSLFGTGTKVTVL" value=7.85

Consider the record given below.
pEC50 for STE72-2G4 scFv-Fc (scFv, V domains shown, also called scFv-hFc; source: Expi293F, transient transfection, purified (Protein A)) VH: QVQLVQSGAEVKKPGASVKVSCKASGYTFTSYGISWVRQAPGQGLEWMGWISAYNGNTNYAQKLQGRVTMTTDTSTSTAYMELRSLRSDDTAVYYCARFFYDSSGYSTDYWGQGTLVTVSS VL: ETTLTQSPAFMSVTPGDRAILSCRASQSVDSHLAWYHQKPGQPPRLLIYGASTRATGIPARFSGSRSGTEFTLTISGLQSEDLGVYYCQQYASWPPGYNFGQGTKLEIK ?
9.70
